measured.target: T1, C-terminally FLAG-tagged human Gas6 recombinant protein (hGas6-F) (human, UniProt Q14393 31-678, gamma-carboxylated glutamic acid residues in the Gla domain (producer cells co-express rat VKOR and human GGCX); positions not given)
T1 construct: also called human Gas6-F; human Gas6 protein
T1 sequence: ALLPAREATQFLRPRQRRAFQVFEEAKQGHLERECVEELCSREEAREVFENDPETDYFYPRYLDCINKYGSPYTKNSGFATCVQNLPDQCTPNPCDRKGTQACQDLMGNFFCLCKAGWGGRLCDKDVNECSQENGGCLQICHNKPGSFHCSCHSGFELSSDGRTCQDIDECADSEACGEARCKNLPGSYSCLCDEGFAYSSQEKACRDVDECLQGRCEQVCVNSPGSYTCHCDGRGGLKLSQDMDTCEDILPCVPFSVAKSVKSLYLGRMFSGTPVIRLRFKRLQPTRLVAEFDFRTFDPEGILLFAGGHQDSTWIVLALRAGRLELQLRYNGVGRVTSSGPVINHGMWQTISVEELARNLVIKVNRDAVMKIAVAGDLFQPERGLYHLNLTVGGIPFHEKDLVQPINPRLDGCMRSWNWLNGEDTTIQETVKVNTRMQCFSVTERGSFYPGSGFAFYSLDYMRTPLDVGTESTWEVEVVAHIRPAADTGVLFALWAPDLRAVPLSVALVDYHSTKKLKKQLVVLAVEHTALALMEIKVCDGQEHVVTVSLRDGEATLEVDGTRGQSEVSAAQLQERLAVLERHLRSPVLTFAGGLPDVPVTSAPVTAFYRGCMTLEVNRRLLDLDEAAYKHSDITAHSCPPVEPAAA
run.description: SPR Biacore T100, captured antibody, Gas6 analyte, first test
Recorded koff by entry
Lab book: enter the figure in s⁻¹, no units written.

hzKM5321 LV3HV0 antibody (antibody, V domains shown, Humanized; variant human IgG4 constant region (EU S228P, L235E, R409K), human kappa; also called B-06; LV3HV0) VH: QVHLVQSGSELKKPGASVKISCKASGYTFTNYGMNWVRQAPGQGLEWMGWINTNTGEPTYTEEFKGRFVFSLDTSVTTSYLQISTLKAEDTAVYFCARDEGWFVYWGQGTLVTVSS VL: ETTLTQSPSSLSASTGDRVTITCITSTDIDDDMNWYQQKPGKAPKLLISEGNTLRPGVPSRFSGSGSGTDFTLTISSTQPEDFADYYCLQTDSVPLTFGQGTKVEIK = 0.000285
hzKM5320 LV5HV0 antibody (antibody, V domains shown, Humanized; variant human IgG4 constant region (EU S228P, L235E, R409K), human kappa; also called A-08) VH: QVQLVQSGSELKKPGASVKVSCKASGYTFTNYGMNWVRQAPGQGLEWMGWINTETGEPTYSDDFKGRFVFSLDTSVSTAYLQISSLKAEDTAVYYCAREDGYYGTLDYWGQGTTVTVSS VL: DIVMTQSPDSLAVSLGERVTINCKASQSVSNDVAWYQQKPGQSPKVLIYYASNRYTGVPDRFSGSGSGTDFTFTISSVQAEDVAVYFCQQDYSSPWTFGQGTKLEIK = 0.00019

Lab note: next binder to report on.
Query: koff; subject: hzKM5321 LV0HV7 antibody (antibody, V domains shown, Humanized; variant human IgG4 constant region (EU S228P, L235E, R409K), human kappa; also called B-12; LV0HV7) VH: QIHLVQSGPELKKPGASVKISCKASGYTFTNYGMNWVKQAPGQGLKWMGWINTNTGEPTYTEEFKGRFVFSLDTSVTTAYLQISTLKAEDTATYFCARDEGWFVYWGQGTLITVSS VL: ETTLTQSPSSLSASVGDRVTITCITSTDIDDDMNWYQQKPGKAPKLLISEGNTLRPGVPSRFSGSGSGTDFTLTISSLQPEDFATYYCLQTDSVPLTFGQGTKVEIK
0.000672
